assay: in vitro; settings: human, plasma, PPB

| compound | fraction unbound at 5 h |
| --- | --- |
| Cc1cn([C@H]2CCCN([C@H](C)c3ccc(C(=O)O)c(Oc4cccc(Cl)c4)c3)C2)c(=O)[nH]c1=O | 0.0156 |
| CC(C)Oc1cc(Nc2nc(N[C@@H](C)c3ccc(F)cn3)nc(OC(CO)CO)c2Cl)n[nH]1 | 0.176 |
| Nc1nc(-c2ccc(Cl)c(Cl)c2)c(-c2ccncc2)s1 | 0.0074 |
| CNC(=O)c1cc(Oc2ccc3c(c2)nc(Nc2ccc(C(F)(F)F)cc2)n3C)ccn1 | 0.005 |
| O=C(O)[C@H](Cc1ccc(F)cc1)N1CCC(CN2CCC(Oc3ccc(Cl)c(Cl)c3)CC2)CC1 | 0.114 |
| CC(C)(C)c1ccc(C(O)CCCN2CCC(C(O)(c3ccccc3)c3ccccc3)CC2)cc1 (stereo not drawn) [TERFENADINE] | 0.0084 |
| Cc1cc(Nc2cncc(N[C@@H](C)c3ccc(F)cn3)n2)[nH]n1 | 0.22 |
| C[C@H]([C@H](O)c1ccc(O)cc1)N1CCC(O)(c2ccccc2)CC1 | 0.681 |
| CCc1[nH]c2nc(Sc3cnc4ccc[n+]([O-])c4c3)nc(N3CC[C@@H](N)C3)c2c1Cl | 0.204 |
| CCN(C(=O)c1cnn(-c2ccccc2)c1NS(=O)(=O)c1ccc(-c2cnco2)cc1)C1CCCCC1 | 0.013 |
| CC(=O)Nc1ccc2ccn(-c3cc(NCCN4CCOCC4)n4ncc(C#N)c4n3)c2c1 | 0.112 |
| COc1ccc2c(C)cc(N[C@H]3CC[C@H](NCc4cn(C)c5cccnc45)C3)nc2c1 | 0.0262 |
| O=C(NO)C1COC(c2ccc(F)c(C(F)(F)F)c2)=N1 (stereo not drawn) | 0.0836 |
| OC[C@H]1C[C@@H](n2nnc3c(N[C@@H]4C[C@H]4c4ccc(F)c(F)c4)nc(SCCC(F)(F)F)nc32)[C@H](O)[C@@H]1O | 0.0015 |
| COc1cc(Nc2nc(N[C@@H](C)c3ncc(F)cn3)nc(N3CCOCC3)c2Cl)n[nH]1 | 0.0784 |
| Cc1cc(OCCCS(C)(=O)=O)cc(C)c1-c1cccc(COc2ccc3c(c2)OC[C@H]3CC(=O)O)c1 | 0.0036 |
| COc1ccc2c(c1)N(CCN1CCC(NCc3cc4c(cn3)OCCO4)CC1)C(=O)CS2 | 0.0948 |
| Cc1cn([C@H]2CCCN(S(=O)(=O)c3cccc(Oc4ccccc4)c3)C2)c(=O)[nH]c1=O | 0.0262 |
